Origin of values: patent US20070213283A1

What follows is a collection of MIC values obtained with E. faecalis ATCC 29212.

Example cases with answers are listed next.
| SMILES_DATA | ASSAY_SYSTEM | MIC |
| --- | --- | --- |
| CC[C@H]1OC(=O)[C@H](C)[C@@H](O[C@H]2C[C@@](C)(OC)[C@@H](OC(=O)CCOCCOc3cc4c(=O)c(C(=O)OCOC(=O)C(C)(C)C)cn(C5CC5)c4cc3Cl)[C@H](C)O2)[C@H](C)[C@@H](O[C@@H]2O[C@H](C)C[C@H](N(C)C)[C@H]2O)[C@](C)(O)C[C@@H](C)CN(C)[C@H](C)[C@@H](O)[C@]1(C)O | E. faecalis ATCC 29212 | ≤ 1 µg/mL |
| CC[C@@H]1OC(=O)[C@H](C)[C@H](O[C@@H]2C[C@](C)(OC)[C@H](OC(=O)CCNCCSc3ccc4c(c3)c(=O)c(C(=O)O)cn4CC)[C@H](C)O2)[C@@H](C)[C@H](O[C@@H]2O[C@H](C)C[C@H](N(C)C)[C@@H]2O)[C@](C)(O)C[C@H](C)CN(C)[C@H](C)[C@@H](O)[C@]1(C)O | E. faecalis ATCC 29212 | ≤ 1 µg/mL |

Now look at this one.
What value of MIC has been reported for the following compound? CC[C@@H]1OC(=O)[C@H](C)[C@@H](O[C@H]2C[C@@](C)(OC)[C@@H](OC(=O)CCNCCSc3ccc4c(=O)c(C(=O)O)cn(CC)c4c3)[C@@H](C)O2)[C@@H](C)[C@H](O[C@H]2O[C@@H](C)C[C@@H](N(C)C)[C@H]2O)[C@](C)(O)C[C@H](C)CN(C)[C@H](C)[C@H]2OC(=O)O[C@]12C
≤ 1 µg/mL

###

Let's go through some MIC measurements on E. faecalis ATCC 29212 together.
Where a name gives a salt, the structure may show the parent alone.

Looking for the measured MIC of CC[C@@H]1OC(=O)[C@H](C)[C@H](O[C@@H]2C[C@@](C)(OC)[C@H](OC(=O)CCOCCOc3cc4c(=O)c(C(=O)O)cn(C5CC5)c4cc3Cl)[C@H](C)O2)[C@@H](C)[C@H](O[C@@H]2O[C@H](C)C[C@H](N(C)C)[C@@H]2O)[C@@](C)(OC)C[C@H](C)C(=O)[C@H](C)[C@@H](O)[C@]1(C)O , can you help?
≤ 1 µg/mL

Request: CC[C@@H]1OC(=O)[C@H](C)[C@H](O[C@H]2C[C@](C)(OC)[C@@H](OC(=O)CCNCCSc3cnc4c(c3)c(=O)c(C(=O)O)cn4CC)[C@@H](C)O2)[C@@H](C)[C@H](O[C@H]2O[C@@H](C)C[C@@H](N(C)C)[C@H]2O)[C@@](C)(O)C[C@H](C)CN(C)[C@H](C)[C@@H](O)[C@@]1(C)O [Example 4, tris trifluoroacetate salt]
≤ 1 µg/mL

And for CC[C@@H]1OC(=O)[C@H](C)[C@H](O[C@@H]2O[C@H](C)[C@H](OC(=O)CCNCCSc3ccc4c(c3)c(=O)c(C(=O)O)cn4CC)[C@@](C)(OC)O2)[C@@H](C)[C@H](O[C@H]2O[C@@H](C)C[C@@H](N(C)C)[C@H]2O)[C@](C)(OC)C[C@H](C)C(=O)[C@@H](C)[C@@H]2NC(=O)O[C@@]12C [Example 9, bis trifluoroacetate salt] ?
≤ 1 µg/mL

###

Quick reference for MIC among some molecules
- Test system: E. faecalis ATCC 29212
- ASSAY: MIC, standard broth dilution method in microtitre
- Type: cell-based
- PROTOCOL_CONDITIONS: Enterococcus faecalis, ATCC29212
Structures can show the parent of a compound that is named as a salt.

Consider the reported MIC for these molecules:
| MOLECULE | MIC |
| --- | --- |
| CC[C@H]1OC(=O)[C@H](C)[C@@H](O[C@H]2C[C@@](C)(OC)[C@@H](OC(=O)CCOCCOc3cc4c(=O)c(C(=O)O)cn(C5CC5)c4cc3Cl)[C@H](C)O2)[C@H](C)[C@@H](O[C@@H]2O[C@H](C)C[C@H](N(C)C)[C@H]2O)[C@](C)(O)C[C@@H](C)CN(C)[C@H](C)[C@@H](O)[C@]1(C)O | ≤ 1 µg/mL |
| CC[C@H]1OC(=O)[C@H](C)[C@@H](O[C@H]2C[C@@](C)(OC)[C@@H](OC(=O)CCOCCNc3ccc4c(c3)c(=O)c(C(=O)O)cn4C3CC3)[C@H](C)O2)[C@@H](C)[C@@H](O[C@@H]2O[C@H](C)C[C@H](N(C)C)[C@H]2O)[C@](C)(O)C[C@@H](C)CN(C)[C@H](C)[C@@H](O)[C@]1(C)O | ≤ 1 µg/mL |

Now for a further molecule.
Param readout= MIC; system= E. faecalis ATCC 29212; entry= CC[C@@H]1OC(=O)[C@H](C)[C@H](O[C@@H]2C[C@](C)(OC)[C@H](OC(=O)CCNCCOc3cc4c5c(c3)c(=O)c(C(=O)O)cn5CCC4)[C@H](C)O2)[C@@H](C)[C@H](O[C@@H]2O[C@H](C)C[C@H](N(C)C)[C@@H]2O)[C@](C)(O)C[C@H](C)CN(C)[C@H](C)[C@@H](O)[C@]1(C)O [Example 12, tris trifluoroacetate salt] ; returns value.
≤ 1 µg/mL

###

This section lists MIC readings for S. aureus Smith ATCC 13709.

Worked examples, 2 molecules total:
| MOLECULE | MIC |
| --- | --- |
| CC[C@H]1OC(=O)[C@H](C)[C@@H](O[C@H]2C[C@@](C)(OC)[C@@H](OC(=O)CCOCCNc3cc4c(=O)c(C(=O)O)cn(C5CC5)c4cc3Cl)[C@H](C)O2)[C@H](C)[C@@H](O[C@@H]2O[C@H](C)C[C@H](N(C)C)[C@H]2O)[C@](C)(OC)C[C@@H](C)C(=O)[C@H](C)[C@@H](O)[C@]1(C)O [Example 36] | ≤ 1 µg/mL |
| CC[C@@H]1OC(=O)[C@H](C)[C@H](O[C@@H]2C[C@](C)(OC)[C@H](OC(=O)CCNCCSc3ccc4c(c3)c(=O)c(C(=O)O)cn4CC)[C@H](C)O2)[C@@H](C)[C@H](O[C@@H]2O[C@H](C)C[C@H](N(C)C)[C@@H]2O)[C@](C)(O)C[C@H](C)CN(C)[C@@H](C)[C@@H]2OC(=O)O[C@@]12C [Example 11] | ≤ 1 µg/mL |

Lab note: next molecule to report on.
Recorded MIC of CC[C@@H]1OC(=O)[C@H](C)[C@H](O[C@@H]2C[C@](C)(OC)[C@H](OC(=O)CCNCCOc3ccc4c(=O)c(C(=O)O)cn(CC)c4c3)[C@H](C)O2)[C@@H](C)[C@H](O[C@@H]2O[C@H](C)C[C@H](N(C)C)[C@@H]2O)[C@](C)(OC)C[C@H](C)C(=O)[C@H](C)[C@@H](O)[C@]1(C)O [Example 17] , please.
≤ 1 µg/mL

###

- System: E. faecalis ATCC 29212
Structures can show the parent of a compound that is named as a salt.
Quick list: MIC per entry.

| COMPOUND | MIC |
| --- | --- |
| CC[C@@H]1OC(=O)[C@H](C)[C@H](O[C@@H]2C[C@](C)(OC)[C@H](OC(=O)CCNCCOc3ccc4c(c3)c(=O)c(C(=O)O)cn4CC)[C@H](C)O2)[C@@H](C)[C@H](O[C@@H]2O[C@H](C)C[C@H](N(C)C)[C@@H]2O)[C@](C)(O)C[C@H](C)CN(C)[C@H](C)[C@@H](O)[C@]1(C)O [Example 14, tris trifluoroacetate salt] | ≤ 1 µg/mL |

Next:
Consider the compound shown here: CC[C@@H]1OC(=O)[C@H](C)[C@H](O[C@@H]2C[C@](C)(OC)[C@H](OC(=O)CCNCCOc3cc4c5c(c3)c(=O)c(C(=O)O)cn5CCC4)[C@H](C)O2)[C@@H](C)[C@H](O[C@@H]2O[C@H](C)C[C@H](N(C)C)[C@@H]2O)[C@](C)(OC)C[C@H](C)C(=O)[C@H](C)[C@@H](O)[C@]1(C)O [Example 13, bis trifluoroacetate salt] What is its recorded MIC?
≤ 1 µg/mL

###

Assay read-out MIC; system under study: S. aureus Smith ATCC 13709.

| SMILES_DATA | ASSAY_SYSTEM | MIC |
| --- | --- | --- |
| CC[C@H]1OC(=O)[C@H](C)[C@@H](O[C@H]2C[C@@](C)(OC)[C@@H](OC(=O)CCOCCNc3cc4c(cc3F)c(=O)c(C(=O)O)cn4C3CC3)[C@H](C)O2)[C@H](C)[C@@H](O[C@@H]2O[C@H](C)C[C@H](N(C)C)[C@H]2O)[C@](C)(O)C[C@@H](C)CN(C)[C@H](C)[C@@H](O)[C@]1(C)O | S. aureus Smith ATCC 13709 | ≤ 1 µg/mL |

Query molecule follows.
What value of measured MIC is listed for CC[C@H]1OC(=O)[C@H](C)[C@@H](O[C@H]2C[C@@](C)(OC)[C@@H](OC(=O)CCOCCOc3cc4c(=O)c(C(=O)O)cn(C5CC5)c4cc3Cl)[C@H](C)O2)[C@H](C)[C@@H](O[C@@H]2O[C@H](C)C[C@H](N(C)C)[C@H]2O)[C@](C)(O)C[C@@H](C)CN(C)[C@H](C)[C@H]2OC(=O)O[C@@]21C ?
≤ 1 µg/mL
